These measurements were taken from the PolyMetriX glass transition set.

Measured glass transition temperature, listed per entry for reference.
Give just the numeric value; °C need not be written.

Worked examples, 2 compounds total:
[
  {
    "compound": "*c1ccc(-c2nnc(-c3cccc(-c4nnc(*)o4)c3)o2)cc1 (repeat unit)",
    "numeric-readout": 278.00
  },
  {
    "compound": "*c1ccc2c(c1)C(=O)N(c1ccc(OCCOCCOCCOc3ccc(N4C(=O)c5ccc(C(*)(C(F)(F)F)C(F)(F)F)cc5C4=O)cc3)cc1)C2=O (repeat unit)",
    "numeric-readout": 166.00
  }
]

Turning now to a further record.
Annotate the compound *c1ccc2c(c1)C(=O)N(c1ccc(Oc3c(C(C)(C)C)cc(-c4ccc(N5C(=O)c6ccc(C(*)(C(F)(F)F)C(F)(F)F)cc6C5=O)cc4)cc3C(C)(C)C)c(C(F)(F)F)c1)C2=O (repeat unit) with its measured glass transition temperature. 362.50

====

observable: glass transition temperature (°C)
Give just the numeric value; °C need not be written.

Worked examples, 5 molecules total:
[
  {
    "molecule": "*CC(*)CNc1ccc([N+](=O)[O-])cc1[N+](=O)[O-] (repeat unit)",
    "observable": "glass transition temperature",
    "numeric-readout": 160.00
  },
  {
    "molecule": "*/C(=C(/*)c1ccc(Oc2ccccc2)cc1)c1ccccc1 (repeat unit)",
    "observable": "glass transition temperature",
    "numeric-readout": 200.00
  },
  {
    "molecule": "*c1cc(Br)c(Oc2c(Br)cc(N3C(=O)c4ccc(S(=O)(=O)c5ccc6c(c5)C(=O)N(*)C6=O)cc4C3=O)cc2Br)c(Br)c1 (repeat unit)",
    "observable": "glass transition temperature",
    "numeric-readout": 328.00
  },
  {
    "molecule": "*Nc1ccc(NC(=O)c2cccc(C(=O)c3ccc(C(*)=O)cc3)c2)cc1 (repeat unit)",
    "observable": "glass transition temperature",
    "numeric-readout": 257.50
  },
  {
    "molecule": "*c1ccc(NC(=O)c2cccc(C(=O)Nc3ccc(S(*)(=O)=O)cc3)c2)cc1 (repeat unit)",
    "observable": "glass transition temperature",
    "numeric-readout": 78.00
  }
]

Annotate the molecule *COC(=O)OCC1OC(C)(C)OC1* (repeat unit) with its measured glass transition temperature. 51.30

Annotate the molecule *c1ccc(Oc2ccc(C(=O)c3ccc(C(=O)c4ccc(Oc5ccc(-c6nc(-c7cccc(-c8nc(*)c(-c9ccccc9)[nH]8)c7)[nH]c6-c6ccccc6)cc5)cc4)cc3)cc2)cc1 (repeat unit) with its measured glass transition temperature. 262.00

Annotate the molecule *C(=O)c1ccc2c(c1)C(=O)N(c1ccc(/C=C/c3ccc(N4C(=O)c5ccc(*)cc5C4=O)cc3S(=O)(=O)[O][Na])c(S(=O)(=O)[O][Na])c1)C2=O (repeat unit) with its measured glass transition temperature. 229.00

====

Categories are assigned from the measured glass transition temperature using these intervals: low range = under 60 °C, mid range = from 60 °C up to 200 °C, high range = 200 °C and over

[
  {
    "compound": "*CC(*)OCC (repeat unit) [Poly(ethyl vinyl ether)]",
    "group": "low range"
  },
  {
    "compound": "*CC(*)OC(=O)CCl (repeat unit)",
    "group": "low range"
  },
  {
    "compound": "*C(=O)OCCCCOC(=O)c1ccc(NC(=O)c2ccc(N3C(=O)c4ccc(*)cc4C3=O)cc2)cc1 (repeat unit)",
    "group": "mid range"
  },
  {
    "compound": "*CC(*)OCC(C)(C)CC (repeat unit)",
    "group": "low range"
  }
]

// return the class label for *O[Si](C)(C)O[Si](C)(C)O[Si](C)(C)O[Si](C)(C)OC(C)CCCCC(*)C (repeat unit) low range

// return the class label for *Oc1ccc(-c2ccc(-c3cc(-c4ccccc4)c(-c4ccc(-c5ccc(OC(=O)c6ccc(C(*)=O)cc6-c6ccccc6)cc5)cc4)c(-c4ccccc4)c3-c3ccccc3)cc2)cc1 (repeat unit) high range

// return the class label for *CCSCc1ccc(Cc2ccc(CSCCOC(=O)CCSCc3ccc(Cc4ccc(CSCCC(=O)O*)cc4)cc3)cc2)cc1 (repeat unit) low range

====

Measured glass transition temperature, listed per entry for reference.
Give just the numeric value; °C need not be written.

Worked examples, 5 compounds total:
[
  {
    "compound": "*CCC(C)CC(C)(C)CNC(=O)c1ccc(C(=O)N*)cc1 (repeat unit)",
    "value-units": "°C",
    "glass transition temperature": 147.00
  },
  {
    "compound": "*Oc1ccc(C(C)(C)c2ccc(OC(=O)c3ccc(C(*)=O)cc3)c(Cl)c2)cc1Cl (repeat unit)",
    "value-units": "°C",
    "glass transition temperature": 190.00
  },
  {
    "compound": "*CCCCCCOC(=O)c1ccc2cc(C(=O)O*)ccc2c1 (repeat unit)",
    "value-units": "°C",
    "glass transition temperature": 64.00
  },
  {
    "compound": "*CCCCCCCCCCCCCCCCOC(=O)C/C=C/CC(=O)O* (repeat unit)",
    "value-units": "°C",
    "glass transition temperature": -22.00
  },
  {
    "compound": "*Cc1cccc(CNC(=O)c2cc(C(=O)N*)cc(C(C)(C)C)c2)c1 (repeat unit)",
    "value-units": "°C",
    "glass transition temperature": 192.00
  }
]

Annotate the compound *CCOc1ccc(C2(c3ccc(OCCO[Si](O*)(c4ccccc4)c4ccccc4)cc3)c3ccccc3-c3ccccc32)cc1 (repeat unit) with its measured glass transition temperature. 97.00

Annotate the compound *Oc1ccc(/C(C)=N/c2ccc(/N=C(\C)c3ccc(Oc4ccc(C(c5ccccc5)(c5ccccc5)c5ccc(*)cc5)cc4)cc3)cc2)cc1 (repeat unit) with its measured glass transition temperature. 178.00

Annotate the compound *CC(*)NC=O (repeat unit) with its measured glass transition temperature. 150.00

Annotate the compound *Oc1ccc(C(C)(CCC#N)c2ccc(OC(*)=O)c(C)c2)cc1C (repeat unit) with its measured glass transition temperature. 117.00

Annotate the compound *c1ccc(Oc2cccc(Oc3ccc(N4C(=O)c5ccc(Oc6ccc(-c7ccc(Oc8ccc9c(c8)C(=O)N(*)C9=O)cc7)cc6)cc5C4=O)cc3)c2)cc1 (repeat unit) with its measured glass transition temperature. 205.00

Annotate the compound *c1cccc(N2C(=O)c3cccc(Oc4ccc(Oc5ccc(Oc6cccc7c6C(=O)N(*)C7=O)cc5)cc4)c3C2=O)c1 (repeat unit) with its measured glass transition temperature. 238.00

Annotate the compound *Oc1ccc(/N=N/c2c(C)cc(Cc3cc(C)c(/N=N/c4ccc(OC(=O)c5ccc(C(*)=O)cc5)cc4)c(C)c3[N+](=O)[O-])c([N+](=O)[O-])c2C)cc1 (repeat unit) with its measured glass transition temperature. 203.00

Annotate the compound *C(F)C(*)(F)OC(F)(F)F (repeat unit) with its measured glass transition temperature. -10.00

Annotate the compound *CCCC(C)(C)CNC(=O)c1cccc(C(=O)N*)c1 (repeat unit) with its measured glass transition temperature. 153.00

Annotate the compound *c1cccc(NC(=O)CCCCCCCCC(=O)Nc2cccc(S(*)(=O)=O)c2)c1 (repeat unit) with its measured glass transition temperature. 112.00

Annotate the compound *CC(F)(F)C(F)(F)C(F)(F)C(F)(F)COC(=O)O* (repeat unit) with its measured glass transition temperature. -41.00

Annotate the compound *O[Si](C)(C)CCCCCCCC[Si](*)(C)C (repeat unit) with its measured glass transition temperature. -88.00

====

Binary call on glass transition temperature: true (1) from 100 °C upward, false (0) beneath that.

Some solved entries appear below for comparison.
[
  {
    "molecule": "*CCOc1ccc(S(=O)(=O)c2ccc(OCCOP(=O)(O*)Oc3ccccc3)cc2)cc1 (repeat unit)",
    "group": "false (0)"
  },
  {
    "molecule": "*CC1CCCC(Cn2c(=O)c3cc4c(=O)n(*)c(=O)c4cc3c2=O)C1 (repeat unit)",
    "group": "true (1)"
  },
  {
    "molecule": "*c1ccc(OC(=O)c2cccc(C(=O)Oc3ccc(-c4nc5ccccc5nc4*)cc3)c2)cc1 (repeat unit)",
    "group": "true (1)"
  },
  {
    "molecule": "*C(=O)N1C(=S)N(C(=O)c2ccc3c(c2)C(=O)N(c2ccc(Oc4ccc(N5C(=O)c6ccc(*)cc6C5=O)cc4)cc2)C3=O)C(C)=C(C(=O)OCC)C1c1ccccc1 (repeat unit)",
    "group": "true (1)"
  }
]

Determine whether this molecule has glass transition temperature no lower than 100 °C: *Oc1ccc(NC(=O)c2ccc([Si](C)(C)c3ccc(C(*)=O)cc3)cc2)cc1 (repeat unit) true (1)

Determine whether this molecule has glass transition temperature no lower than 100 °C: *CCN(*)C(=O)C1CC1 (repeat unit) false (0)

Determine whether this molecule has glass transition temperature no lower than 100 °C: *C(=O)OCCCCCCOC(=O)c1ccc(N2C(=O)c3ccc(*)cc3C2=O)cc1 (repeat unit) false (0)

Determine whether this molecule has glass transition temperature no lower than 100 °C: *CC(O)CN(*)c1ccc(/N=N/c2ccc(Cl)cc2)cc1 (repeat unit) true (1)

Determine whether this molecule has glass transition temperature no lower than 100 °C: *O[Si](C)(C)c1ccc2cc3cc([Si](*)(C)C)ccc3cc2c1 (repeat unit) true (1)

Determine whether this molecule has glass transition temperature no lower than 100 °C: *CC(O)COc1ccc(S(=O)(=O)c2ccc(OCC(O)COc3c(C)cc(S(=O)(=O)c4cc(C)c(O*)c(C)c4)cc3C)cc2)cc1 (repeat unit) true (1)

Determine whether this molecule has glass transition temperature no lower than 100 °C: *CCCCCCCCCCCCCCCCCCNC(=O)CCCCCCCCCCCCCCCCC(=O)N* (repeat unit) false (0)

Determine whether this molecule has glass transition temperature no lower than 100 °C: *c1cccc(P(=O)(c2ccc(C(F)(F)F)cc2)c2cccc(-n3c(=O)c4cc5c(=O)n(*)c(=O)c5c(-c5cc(C(F)(F)F)cc(C(F)(F)F)c5)c4c3=O)c2)c1 (repeat unit) true (1)

Determine whether this molecule has glass transition temperature no lower than 100 °C: *CC(CC)(CC)COC(=O)c1ccc(-c2ccc(-c3ccc(C(=O)O*)cc3)cc2)cc1 (repeat unit) false (0)

Determine whether this molecule has glass transition temperature no lower than 100 °C: *CCCCCCNC(=O)CCP(=S)(CCC(=O)N*)c1ccccc1 (repeat unit) false (0)

Determine whether this molecule has glass transition temperature no lower than 100 °C: *C(=O)Oc1c(C)cc(C(c2cc(C)c(OC(=O)c3ccc4c(c3)C(=O)N(c3c(C)cc(-c5cc(C)c(N6C(=O)c7ccc(*)cc7C6=O)c(C)c5)cc3C)C4=O)c(C)c2)(C(F)(F)F)C(F)(F)F)cc1C (repeat unit) true (1)

Determine whether this molecule has glass transition temperature no lower than 100 °C: *O[Si](*)(C)OCCCCCCCCCCCOc1ccc(C2COC(c3ccc(OC)cc3)OC2)cc1 (repeat unit) false (0)

Determine whether this molecule has glass transition temperature no lower than 100 °C: *c1ccc(-c2nc3cc(-c4ccc5oc(*)nc5c4)ccc3o2)cc1 (repeat unit) true (1)

Determine whether this molecule has glass transition temperature no lower than 100 °C: *O[Si](*)(C)CCCCCCCCCCC(=O)Oc1ccc(-c2ccc(OC(=O)CCCCC(=O)OC3CC(C)CCC3C(C)C)cc2)cc1 (repeat unit) false (0)
